compounds and their reported change in vivo at 1 mg/kg
System: Spontaneously Hypertensive Rats
test_protocol: Test 1: antihypertensive effects (systolic tail artery blood pressure) and heart rate in spontaneously hypertensive rats, oral
Format: in vivo, rat (male, SHR)
cond: Rattus norvegicus; SHR, oral 1 mg/Kg, 3 hours; read-out: Antihypertensive effects, change (%) in blood pressure, 3 hours later
observed_property: change in vivo at 1 mg/kg (%)

In [3]: df
Out[3]:
                              record_smiles          observed_property  measured_number
0  CCn1ccc2nc(N3CCN(c4ncc5ccccc5n4)CC3)ncc2c1=O  change in vivo at 1 mg/kg             -2.5
1  COc1cc2nc(N3CCN(c4ncc(C(=O)N5CCCC5)c(C)n4)CC3)nc(N)c2cc1OC  change in vivo at 1 mg/kg            -10.6
2  CCn1ccc(=O)c2cnc(N3CCN(c4nc(N)c5cc(OC)c(OC)cc5n4)CC3)nc21  change in vivo at 1 mg/kg            -12.5
3  COc1cc2nc(N3CCN(c4ncc(C(=O)NC5CCCCC5)c(C)n4)CC3)nc(N)c2cc1OC  change in vivo at 1 mg/kg             -2.5
4  COc1cc2nc(N3CCN(c4nc(N)c5cc(OC)c(OC)cc5n4)CC3)nc(N)c2cc1OC  change in vivo at 1 mg/kg               -2
5  COc1cc2cnc(N3CCN(c4nc(N)c5cc(OC)c(OC)cc5n4)CC3)nc2cc1OC  change in vivo at 1 mg/kg            -13.4
6  COc1cc2nc(N3CCN(c4ncc5c(n4)N(C)C(=O)C5)CC3)nc(N)c2cc1OC  change in vivo at 1 mg/kg              -23
7  COc1cc2nc(N3CCN(c4ncc5c(n4)CN(CCc4ccccc4)C5=O)CC3)nc(N)c2cc1OC  change in vivo at 1 mg/kg            -13.3

---

molecules and their reported change in vivo at 1 mg/kg
Test system: Spontaneously Hypertensive Rats
test_protocol: Test 1: antihypertensive effects (systolic tail artery blood pressure) and heart rate in spontaneously hypertensive rats, oral
Type: in vivo, rat (male, SHR)
cond: Rattus norvegicus; SHR, oral 1 mg/Kg, 3 hours; read-out: Antihypertensive effects, change (%) in blood pressure, 3 hours later
observed_property: change in vivo at 1 mg/kg (%)

In [3]: df
Out[3]:
                                    molecule          observed_property  display_unit  measured_number
 0  CCNc1nc(N2CCN(c3nc(N)c4cc(OC)c(OC)cc4n3)CC2)ncc1C(=O)OCC [Example 57]  change in vivo at 1 mg/kg             %            -18.9
 1  COc1cc2nc(N3CCN(c4ncc5c(=O)n(-c6ccccc6)ccc5n4)CC3)nc(N)c2cc1OC [Example 9]  change in vivo at 1 mg/kg             %             -8.1
 2  COc1cc2nc(N3CCN(c4nc(N(C)C)c5cc(OC)c(OC)cc5n4)CC3)nc(N)c2cc1OC [Example 73]  change in vivo at 1 mg/kg             %                0
 3  CCn1ccc2c(c1=O)CN=C(N1CCN(c3nc(N)c4cc(OC)c(OC)cc4n3)CC1)N2 [Example 35]  change in vivo at 1 mg/kg             %             -8.7
 4  CCOC(=O)c1cnc(N2CCN(c3nc(N)c4cc(OC)c(OC)cc4n3)CC2)nc1NC(C)=O [Example 60]  change in vivo at 1 mg/kg             %             -5.2
 5  CCN1CCC(=O)c2cnc(N3CCN(c4nc(N)c5cc(OC)c(OC)cc5n4)CC3)nc21 [Example 21]  change in vivo at 1 mg/kg             %            -23.2
 6  CCOc1nccc2nc(N3CCN(c4nc(N)c5cc(OC)c(OC)cc5n4)CC3)ncc12 [Example 74]  change in vivo at 1 mg/kg             %            -14.1
 7  CCn1ccc2nc(N3CCN(c4ncc5cc(OC)c(OC)cc5n4)CC3)ncc2c1=O [Example 95]  change in vivo at 1 mg/kg             %             -2.9
 8  COc1cc2nc(N3CCN(c4ncc5c(n4)N(C)CCN(C)C5=O)CC3)nc(N)c2cc1OC [Example 76]  change in vivo at 1 mg/kg             %             -3.8
 9  CCNC(=O)c1cnc(N2CCN(c3nc(N)c4cc(OC)c(OC)cc4n3)CC2)nc1 [Example 37]  change in vivo at 1 mg/kg             %            -16.4
10  CCCC(=O)N1CCCN(c2nc(N)c3cc(OC)c(OC)cc3n2)CC1 [Example E-643, Bunazosin, reference compound]  change in vivo at 1 mg/kg             %              -12
11  CCn1cc(C)c2nc(N3CCN(c4nc(N)c5cc(OC)c(OC)cc5n4)CC3)ncc2c1=O [Example 12]  change in vivo at 1 mg/kg             %            -14.3
12  CCn1ccc2nc(N3CCN(c4nc(N)c5cc(OC)c(OC)c(OC)c5n4)CC3)ncc2c1=O.Cl [Example 81, hydrochloride]  change in vivo at 1 mg/kg             %             -7.3
13  CCCCN1Cc2nc(N3CCN(c4nc(N)c5cc(OC)c(OC)cc5n4)CC3)ncc2C1=O [Example 27]  change in vivo at 1 mg/kg             %            -17.6
14  CCNC(=O)c1cnc(N2CCN(c3nc(N)c4cc(OC)c(OC)cc4n3)CC2)nc1C [Example 41]  change in vivo at 1 mg/kg             %            -19.5
15  CCCN1Cc2nc(N3CCN(c4nc(N)c5cc(OC)c(OC)cc5n4)CC3)ncc2C1=O [Example 26]  change in vivo at 1 mg/kg             %            -15.2
16  CCN(CC)C(=O)c1cnc(N2CCN(c3nc(N)c4cc(OC)c(OC)cc4n3)CC2)nc1C [Example 42]  change in vivo at 1 mg/kg             %            -19.5
17  CCNC(=O)Cc1cnc(N2CCN(c3nc(N)c4cc(OC)c(OC)cc4n3)CC2)nc1NCC [Example 63]  change in vivo at 1 mg/kg             %             -4.7
18  COc1cc2nc(N3CCN(c4ncc5c(n4)CN(C)C5=O)CC3)nc(N)c2cc1OC [Example 24]  change in vivo at 1 mg/kg             %            -24.8
19  CCOC(=O)c1cnc(N2CCN(c3nc(N)c4cc(OC)c(OC)cc4n3)CC2)nc1C [Example 39]  change in vivo at 1 mg/kg             %            -12.7
20  CCCCCCCN1Cc2nc(N3CCN(c4nc(N)c5cc(OC)c(OC)cc5n4)CC3)ncc2C1=O [Example 90]  change in vivo at 1 mg/kg             %             -6.8
21  COc1cc2nc(N3CCN(c4ncc(C(C)=O)c(C)n4)CC3)nc(N)c2cc1OC [Example 36]  change in vivo at 1 mg/kg             %            -16.5
22  COc1cc2nc(N3CCN(c4ncc(C#N)c(O)n4)CC3)nc(N)c2cc1OC [Example 51]  change in vivo at 1 mg/kg             %                0
23  CCOC(=O)c1cnc(N2CCN(c3nc(N)c4cc(OC)c(OC)cc4n3)CC2)nc1N(CC)CC [Example 58]  change in vivo at 1 mg/kg             %            -17.6
24  COc1cc2nc(N3CCN(c4ncc5c(=O)n(C)ccc5n4)CC3)nc(N)c2cc1OC [Example 4]  change in vivo at 1 mg/kg             %            -22.1
25  CCNc1nc(N2CCN(c3nc(N)c4cc(OC)c(OC)cc4n3)CC2)ncc1C(=O)OC.Cl [Example 2, hydrochloride]  change in vivo at 1 mg/kg             %            -23.9
26  COc1cc2nc(N3CCN(c4ncc(C(=O)NCC(F)(F)F)c(C)n4)CC3)nc(N)c2cc1OC [Example 48]  change in vivo at 1 mg/kg             %               -9
27  COc1cc2nc(N3CCN(C4=NCc5c(ccn(C)c5=O)N4)CC3)nc(N)c2cc1OC [Example 34]  change in vivo at 1 mg/kg             %             -9.1
